target: UniProt P11169; test: GLUT3 transporter activity assay (2-DG uptake) in DLD-1-GLUT1-/- cells; details: DLD-1-GLUT1-/- cell line; read-out: GLUT3 inhibitory activity (IC50)
pIC50: −log10 of the molar value.
pIC50 for assorted molecules

Consider the molecule Cc1ccc(CCNC(=O)c2cccc(N3C(=O)NC4CC3(C)Oc3c(OCc5cccnc5N)cccc34)c2)cc1 (centres unmarked) [Compound A12] and give its recorded pIC50.
5.40 to 6.00

Consider the molecule CCNC(=O)c1cccc(N2C(=O)NC3CC2(C)Oc2c(OCc4ccccc4)cccc23)c1 (centres unmarked) [Compound A38] and give its recorded pIC50.
5.00 to 5.40

Consider the molecule Cc1ccc(CCNC(=O)c2cccc(N3C(=O)NC4CC3(C)Oc3c(OCc5ccccn5)cccc34)c2)cc1 (centres unmarked) [Compound A11] and give its recorded pIC50.
≥ 6.52

Consider the molecule Cc1ccc(CCNC(=O)c2cccc(N3C(=O)NC4CC3(C)Oc3c(OCc5cccc(Cl)c5)cccc34)c2)cc1 (centres unmarked) [Compound A04] and give its recorded pIC50.
6.00 to 6.52

Continuing:
Consider the molecule CC12CC(NC(=O)N1c1cccc(C(=O)NCCc3ccccc3)c1)c1cccc(OCc3ccccc3)c1O2 (centres unmarked) [Compound A36] and give its recorded pIC50.
6.00 to 6.52

---

biological target: GLUT1 (Homo sapiens, UniProt P11166); experiment: GLUT1 transporter activity assay (2-DG uptake) in DLD1 cells; details: DLD1 cell line; read-out: GLUT1 inhibitory activity (IC50)
Sequence (P11166 whole entry): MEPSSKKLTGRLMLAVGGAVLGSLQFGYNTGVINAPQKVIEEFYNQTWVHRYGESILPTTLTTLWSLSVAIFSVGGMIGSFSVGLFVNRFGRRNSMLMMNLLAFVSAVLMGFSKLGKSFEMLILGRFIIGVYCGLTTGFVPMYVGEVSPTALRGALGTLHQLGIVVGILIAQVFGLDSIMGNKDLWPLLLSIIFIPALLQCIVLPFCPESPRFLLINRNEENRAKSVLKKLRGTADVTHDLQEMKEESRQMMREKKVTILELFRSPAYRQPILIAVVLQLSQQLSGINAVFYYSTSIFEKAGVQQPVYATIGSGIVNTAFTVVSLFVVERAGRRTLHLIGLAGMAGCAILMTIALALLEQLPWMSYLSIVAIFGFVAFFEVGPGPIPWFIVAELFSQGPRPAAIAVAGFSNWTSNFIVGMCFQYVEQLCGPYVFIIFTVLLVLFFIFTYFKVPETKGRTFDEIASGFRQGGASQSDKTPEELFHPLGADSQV
property: IC50

Consider the compound Cc1ccc(CCOC(=O)c2cccc(N3C(=O)NC4CC3(C)Oc3c(OCc5ccccc5)cccc34)c2)cc1 (stereo not shown) and give its recorded IC50.
4000 to 10000 nM

Consider the compound CC12CC(NC(=O)N1c1cccc(C(=O)NCCOc3ccccc3)c1)c1cccc(OCc3ccccc3)c1O2 (stereo not shown) and give its recorded IC50.
1000 to 4000 nM

Consider the compound Cc1ccc(CCNC(=O)c2cccc(N3C(=O)NC4CC3(C)Oc3c(OCc5cccc(Cl)c5)cccc34)c2)cc1 (stereo not shown) and give its recorded IC50.
300 to 1000 nM

Consider the compound COC(=O)c1cccc(N2C(=O)NC3CC2(C)Oc2c(OCc4ccccc4)cccc23)c1 (stereo not shown) and give its recorded IC50.
1000 to 4000 nM

Consider the compound Cc1ccc(CCNC(=O)c2cccc(N3C(=O)NC4CC3(C)Oc3c(OCc5ccccn5)cccc34)c2)cc1 (stereo not shown) and give its recorded IC50.
≤ 300 nM

Consider the compound Cc1ccc(CCNC(=O)c2cccc(N3C(=O)NC4CC3(C)Oc3c(OCc5ccc(C#N)cc5)cccc34)c2)cc1 (stereo not shown) and give its recorded IC50.
≤ 300 nM

Now turn to the next compound.
Consider the compound Cc1ccc(CCNC(=O)c2cccc(N3C(=O)NC4CC3(C)Oc3c(OCc5cncc(C)c5)cccc34)c2)cc1 (stereo not shown) and give its recorded IC50.
≤ 300 nM

---

IC50 for assorted compounds
Biological target: GLUT3 (Homo sapiens)
Sequence (P11169 1-496): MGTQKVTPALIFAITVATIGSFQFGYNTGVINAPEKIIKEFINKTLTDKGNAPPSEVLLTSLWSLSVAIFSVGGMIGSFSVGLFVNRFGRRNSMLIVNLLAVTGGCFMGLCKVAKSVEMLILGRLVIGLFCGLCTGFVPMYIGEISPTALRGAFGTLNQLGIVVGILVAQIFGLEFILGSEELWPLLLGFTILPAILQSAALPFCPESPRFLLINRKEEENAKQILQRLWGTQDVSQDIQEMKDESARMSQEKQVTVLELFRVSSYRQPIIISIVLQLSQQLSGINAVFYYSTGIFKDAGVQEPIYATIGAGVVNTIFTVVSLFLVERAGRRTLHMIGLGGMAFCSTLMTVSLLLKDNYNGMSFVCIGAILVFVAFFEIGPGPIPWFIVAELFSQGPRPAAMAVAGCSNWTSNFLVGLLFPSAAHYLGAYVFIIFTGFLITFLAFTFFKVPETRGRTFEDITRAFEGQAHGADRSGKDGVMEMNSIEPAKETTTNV
Assay: GLUT3 transporter activity assay (2-DG uptake) in DLD-1-GLUT1-/- cells
Conditions: DLD-1-GLUT1-/- cell line; read-out: GLUT3 inhibitory activity (IC50)

Example compounds with recorded IC50:
Consider the compound Cc1ccc(CCNC(=O)c2cccc(N3C(=O)NC4CC3(C)Oc3c(OCc5cncnc5)cccc34)c2)cc1 (stereo not shown) and give its recorded IC50.
0.3 to 1 µM

Consider the compound CC12CC(NC(=O)N1c1cccc(C(=O)NCCOc3ccccc3)c1)c1cccc(OCc3ccccc3)c1O2 (stereo not shown) and give its recorded IC50.
1 to 4 µM

Continuing:
Consider the compound Cc1ccc(CCNC(=O)c2cccc(N3C(=O)NC4CC3(C)Oc3c(OCC5CC5)cccc34)c2)cc1 (stereo not shown) and give its recorded IC50.
0.3 to 1 µM

Consider the compound COC(=O)c1cccc(N2C(=O)NC3CC2(C)Oc2c(OCc4ccccc4)cccc23)c1 (stereo not shown) and give its recorded IC50.
1 to 4 µM
